Reported growth is given for each of the following molecules.
System: DU-145 prostate
protocol summary: NCI-60 one-dose screen, 48 h (100 = growth as untreated, 0 = no growth, -100 = all killed)
protocol conditions: 10 µM unless noted
Compounds without any hit were thinned out: in the full panel of roughly 83,000, 20% have a hit.
Hi! Could you send only the number? It should be in %, unit omitted.

// worked examples, growth included
- molecule: "CCC(C)Nc1ccc(N)cc1 (stereo not given)"
  experimental value: 32.1
- molecule: "Cc1nc(N)nc(SCc2ccccc2)c1Br"
  experimental value: 104

// next item, growth requested
# input molecule: COC(=O)c1ccc2c(c1)Oc1ccc(Cl)cc1-c1cc(C)nn1-2 ; wanted: its growth 82.3

Source listed as PubChem BioAssay (NCI).
